Where do the numbers come from? From patent US6545053B1.

Molecular target: human β3 (Homo sapiens)
Construct: And then full length of human β3 gene was cloned using this fragment as a probe; expressed in transfected cells; host or cells: CHO cells (Chinese hamster ovary), pcDNA3 vector
Sequence (P13945 whole entry, the tested form may be a part): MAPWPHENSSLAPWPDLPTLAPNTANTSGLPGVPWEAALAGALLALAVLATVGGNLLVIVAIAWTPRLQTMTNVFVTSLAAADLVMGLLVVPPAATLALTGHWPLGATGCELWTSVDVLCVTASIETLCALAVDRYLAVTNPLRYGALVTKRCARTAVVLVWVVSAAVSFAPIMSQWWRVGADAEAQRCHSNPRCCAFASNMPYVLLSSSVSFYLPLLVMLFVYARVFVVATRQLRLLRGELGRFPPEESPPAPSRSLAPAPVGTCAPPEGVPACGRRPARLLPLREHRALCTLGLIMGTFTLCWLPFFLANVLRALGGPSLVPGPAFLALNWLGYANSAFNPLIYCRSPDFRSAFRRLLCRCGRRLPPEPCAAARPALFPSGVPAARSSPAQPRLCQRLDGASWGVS
Assay: Human β3-agonist activity (cAMP in CHO cells transfected with human β3 gene)
Assay type: cell-based
Conditions: CHO; read-out: Intrinsic activity (%)
Where a name gives a salt, the structure may show the parent alone.
Known Emax of a selection of compounds

>  <compound>
CS(=O)(=O)Nc1cc([C@@H](O)CNCCOc2ccc3c(c2)sc2ccccc23)ccc1O [Example 72, Hydrochloride]

>  <tested target>
human β3 (Homo sapiens)

>  <unit abbrev>
%

>  <Emax>
80

$$$$
>  <compound>
CNS(=O)(=O)c1cccc(C(O)CNCCOc2ccc3c(c2)[nH]c2ccccc23)c1 (racemic) [Example 16, Hydrochloride]

>  <tested target>
human β3 (Homo sapiens)

>  <unit abbrev>
%

>  <Emax>
99

$$$$
>  <compound>
CN(C)S(=O)(=O)Nc1cc([C@@H](O)CNCCOc2ccc3c(c2)[nH]c2ccccc23)ccc1O [Example 73, Hydrochloride]

>  <tested target>
human β3 (Homo sapiens)

>  <unit abbrev>
%

>  <Emax>
102

$$$$
>  <compound>
CS(=O)(=O)Nc1cc(C(O)CNCCOc2ccc3c(c2)[nH]c2ccccc23)ccc1Cl (racemic) [Example 6, Hydrochloride]

>  <tested target>
human β3 (Homo sapiens)

>  <unit abbrev>
%

>  <Emax>
119

$$$$
>  <compound>
CS(=O)(=O)Nc1cc(C(O)CNCCOc2ccc3c(c2)[nH]c2ccccc23)ccc1OCc1ccccc1 (racemic) [Example 1, Hydrochloride]

>  <tested target>
human β3 (Homo sapiens)

>  <unit abbrev>
%

>  <Emax>
80

$$$$
>  <compound>
CS(=O)(=O)Nc1cccc(C(O)CNCCOc2ccc3c(c2)[nH]c2ccccc23)c1.Cl (racemic) [Example 7, Hydrochloride]

>  <tested target>
human β3 (Homo sapiens)

>  <unit abbrev>
%

>  <Emax>
95

$$$$

----------
Target: human β3 (Homo sapiens)
Construct: And then full length of human β3 gene was cloned using this fragment as a probe; expressed in transfected cells; host or cells: CHO cells (Chinese hamster ovary), pcDNA3 vector
Test: Human β3-agonist activity (cAMP in CHO cells transfected with human β3 gene)
Type: cell-based
Conditions: CHO; read-out: Intrinsic activity (%)
Structures can show the parent of a compound that is named as a salt.

>  <compound>
CS(=O)(=O)Nc1cc([C@H](O)CNCCOc2ccc3c(c2)[nH]c2ccccc23)ccc1F [Example 78, Hydrochloride]

>  <unit abbrev>
%

>  <Emax>
110

$$$$
>  <compound>
CS(=O)(=O)Nc1cc(C(O)CNCCOc2ccc3c(c2)[nH]c2ccccc23)ccc1N (racemic) [Example 82, Hydrochloride]

>  <unit abbrev>
%

>  <Emax>
130

$$$$
>  <compound>
CS(=O)(=O)Nc1cc([C@@H](O)CNCCOc2ccc3c(c2)oc2ccccc23)ccc1O [Example 69, Hydrochloride]

>  <unit abbrev>
%

>  <Emax>
94

$$$$
>  <compound>
CCN(CC)S(=O)(=O)Nc1cc(C(O)CNCCOc2ccc3c(c2)[nH]c2ccccc23)ccc1O (racemic) [Example 88, Hydrochloride]

>  <unit abbrev>
%

>  <Emax>
86

$$$$
>  <compound>
CS(=O)(=O)Nc1cc(C(O)CNCCOc2ccc3c(c2)[nH]c2ccccc23)ccc1CO (racemic)

>  <unit abbrev>
%

>  <Emax>
71

$$$$
>  <compound>
CC(=O)Nc1ccc2c(c1)Cc1cc(OCCNCC(O)c3ccc(O)c(NS(C)(=O)=O)c3)ccc1-2 (racemic) [Example 50, Hydrochloride]

>  <unit abbrev>
%

>  <Emax>
85

$$$$
>  <compound>
CS(=O)(=O)Nc1cc(C(O)CNCCOc2ccc3c(c2)[nH]c2ccccc23)ccc1O.Cl (racemic) [Example 2, Hydrochloride]

>  <unit abbrev>
%

>  <Emax>
120

$$$$

----------
Target: human β3 (Homo sapiens)
Construct: And then full length of human β3 gene was cloned using this fragment as a probe; expressed in transfected cells; host or cells: CHO cells (Chinese hamster ovary), pcDNA3 vector
Test: Human β3-agonist activity (cAMP in CHO cells transfected with human β3 gene)
Format: cell-based
Settings: CHO; read-out: Intrinsic activity (%)
Procedure: Human β3-agonist Activity Human β3-agonist activity was examined using CHO cells (chinese hamster ovarian cells) to which pcDNA3 (in vitrogen) cells inserted human β3 gene was transfected. […] After culturing for 30 minutes, culture medium was withdrawn, 0.5 ml of 1 N NaOH was added and was kept for 20 minutes. […] Finally the concentration of cAMP were analyzed using cAMP EIA KIT (Cayman). […]
Counter-ions that a name gives are not always drawn.
In this section we review reported Emax values for a set of compounds.

>  <compound>
CC(=O)Nc1ccc2c(c1)Cc1cc(OCCNC[C@H](O)c3cccc(NS(C)(=O)=O)c3)ccc1-2 [Example 71, Hydrochloride]

>  <Emax>
97%

$$$$
>  <compound>
CN(C)S(=O)(=O)Nc1cc(C(O)CNCCOc2ccc3c(c2)[nH]c2ccccc23)ccc1O (racemic) [Example 25, Hydrochloride]

>  <Emax>
95%

$$$$
>  <compound>
CS(=O)(=O)Nc1cc(C(O)CNCCOc2ccc3c(c2)[nH]c2ccccc23)ccc1Br (racemic) [Example 85]

>  <Emax>
70%

$$$$
>  <compound>
CN(C)S(=O)(=O)Nc1cc([C@@H](O)CNCCOc2ccc3c(c2)oc2ccccc23)ccc1O [Example 75, Hydrochloride]

>  <Emax>
105%

$$$$
>  <compound>
CNS(=O)(=O)c1cc([C@@H](O)CNCCOc2ccc3c(c2)[nH]c2ccccc23)ccc1O [Example 81, Hydrochloride]

>  <Emax>
98%

$$$$
>  <compound>
CC(=O)Nc1ccc2c(c1)Cc1cc(OCCNCC(O)c3ccc(O)c(NS(=O)(=O)N(C)C)c3)ccc1-2 (racemic) [Example 45, Hydrochloride]

>  <Emax>
89%

$$$$

----------
Target: human β3 (Homo sapiens)
Construct: And then full length of human β3 gene was cloned using this fragment as a probe; expressed in transfected cells; host or cells: CHO cells (Chinese hamster ovary), pcDNA3 vector
Assay: Human β3-agonist activity (cAMP in CHO cells transfected with human β3 gene)
Format: cell-based
Settings: CHO; read-out: Intrinsic activity (%)
Where a name gives a salt, the structure may show the parent alone.
This listing pairs molecules with measured Emax.
endpoint: Emax (%)

>  <molecule>
O[C@@H](CNCCOc1ccc2c(c1)[nH]c1ccccc12)c1ccccc1 [Example 32, Hydrochloride]

>  <unit abbrev>
%

>  <measured result>
98

$$$$
>  <molecule>
COC(CNCCOc1ccc2c(c1)[nH]c1ccccc12)c1ccc(N)c(NS(C)(=O)=O)c1 (racemic) [Example 92, Hydrochloride]

>  <unit abbrev>
%

>  <measured result>
81

$$$$
>  <molecule>
CS(=O)(=O)Nc1cccc(C(O)CNCCOc2ccc3c(c2)sc2ccccc23)c1 (racemic) [Example 41, Hydrochloride]

>  <unit abbrev>
%

>  <measured result>
63

$$$$
>  <molecule>
COC(CNCCOc1ccc2c(c1)[nH]c1ccccc12)c1ccc(O)c(NS(C)(=O)=O)c1 (racemic) [Example 90, Hydrochloride]

>  <unit abbrev>
%

>  <measured result>
102

$$$$
>  <molecule>
CS(=O)(=O)Nc1cc(C(O)CNCCOc2ccc3c(c2)sc2ccccc23)ccc1Cl (racemic) [Example 58, Hydrochloride]

>  <unit abbrev>
%

>  <measured result>
91

$$$$
>  <molecule>
CS(=O)(=O)Nc1cc(C(O)CNCCOc2ccc3c(c2)oc2ccccc23)ccc1O (racemic) [Example 4, Hydrochloride]

>  <unit abbrev>
%

>  <measured result>
80

$$$$
>  <molecule>
CN(C)S(=O)(=O)Nc1cc([C@H](O)CNCCOc2ccc3c(c2)[nH]c2ccccc23)ccc1O [Example 74, Hydrochloride]

>  <unit abbrev>
%

>  <measured result>
114

$$$$
>  <molecule>
CS(=O)(=O)Nc1cc(C(O)CNCCOc2ccc3c(c2)sc2ccccc23)ccc1O (racemic) [Example 38, Hydrochloride]

>  <unit abbrev>
%

>  <measured result>
76

$$$$
>  <molecule>
CS(=O)(=O)Nc1cc(C(O)CNCCOc2ccc3c(c2)[nH]c2ccccc23)ccc1F (racemic) [Example 5, Hydrochloride]

>  <unit abbrev>
%

>  <measured result>
114

$$$$
>  <molecule>
CS(=O)(=O)Nc1cccc([C@H](O)CNCCOc2ccc3c(c2)[nH]c2ccccc23)c1 [Example 15, Hydrochloride]

>  <unit abbrev>
%

>  <measured result>
88

$$$$
>  <molecule>
CS(=O)(=O)Nc1cc([C@H](O)CNCCOc2ccc3c(c2)[nH]c2ccccc23)ccc1Cl [Example 80, Hydrochloride]

>  <unit abbrev>
%

>  <measured result>
110

$$$$
>  <molecule>
CN(C)S(=O)(=O)Nc1cc(C(O)CNCCOc2ccc3c(c2)oc2ccccc23)ccc1O (racemic) [Example 43, Hydrochloride]

>  <unit abbrev>
%

>  <measured result>
104

$$$$
>  <molecule>
CC(C)S(=O)(=O)Nc1cc(C(O)CNCCOc2ccc3c(c2)[nH]c2ccccc23)ccc1O (racemic) [Example 54, Hydrochloride]

>  <unit abbrev>
%

>  <measured result>
109

$$$$
>  <molecule>
CN(C)S(=O)(=O)c1cc(C(O)CNCCOc2ccc3c(c2)[nH]c2ccccc23)ccc1O (racemic) [Example 89, Hydrochloride]

>  <unit abbrev>
%

>  <measured result>
73

$$$$
>  <molecule>
CS(=O)(=O)Nc1cc([C@@H](O)CNCCOc2ccc3c(c2)[nH]c2ccccc23)ccc1O [Example 12, Hydrochloride]

>  <unit abbrev>
%

>  <measured result>
113

$$$$
>  <molecule>
C[C@H](COc1ccc2c(c1)[nH]c1ccccc12)NC[C@H](O)c1ccccc1 [Example 35, Hydrochloride]

>  <unit abbrev>
%

>  <measured result>
90

$$$$
>  <molecule>
CS(=O)(=O)Nc1cc(C(O)CNCCOc2ccc3c(c2)sc2ccccc23)ccc1F (racemic) [Example 56, Hydrochloride]

>  <unit abbrev>
%

>  <measured result>
97

$$$$
>  <molecule>
CS(=O)(=O)Nc1cc(C(O)CNCCOc2ccc3c(c2)Cc2cc(N)ccc2-3)ccc1O (racemic) [Example 52, Hydrochloride]

>  <unit abbrev>
%

>  <measured result>
78

$$$$
>  <molecule>
OC(CNCCOc1ccc2c(c1)[nH]c1ccccc12)c1ccccc1F (racemic) [Example 28, Hydrochloride]

>  <unit abbrev>
%

>  <measured result>
97

$$$$
